- Tested on: E. coli ATCC 25922
- test: Phototoxicity test c.1) (LED array 430-435 nm, CFU count by Miles and Misra)
- Format: cell-based, Escherichia coli
- particulars: Escherichia coli, ATCC25922, light or radiation study, 25 min; 10 μM; incubation period 25 min (lower value); light dose 33.8 J/cm^2, approx. 435 nm, 60 min at 9.4 mW/cm^2; vs reference control; read-out: Effectiveness against E. Coli: Reduction in CFU in log10 at concentration of 10 μM
Counter-ions that a name gives are not always drawn.
test-readout: log reduction at 10 µM

{"compound": "NCCOc1ccc(/C=C/C(=O)CC(=O)/C=C/c2ccc(OCCN)c3ccccc23)c2ccccc12 [Curcumin 12a hydrochloride]", "log reduction at 10 µM": "> 4"}
{"compound": "COc1cc(/C=C/C(=O)CC(=O)/C=C/c2ccc(OCCC[n+]3ccccc3)c(OC)c2)ccc1OCCC[n+]1ccccc1 [Curcumin 10c hydrochloride]", "log reduction at 10 µM": "> 5"}

State the recorded log reduction at 10 µM for this entry: COc1cc(/C=C/C(=O)CC(=O)/C=C/c2ccc(OCCNC(=N)N)c(OC)c2)ccc1OCCNC(=N)N [Curcumin 10b hydrochloride]
> 4

Request the reported log reduction at 10 µM associated with NCCOc1ccc(/C=C/C(=O)CC(=O)/C=C/c2ccc(OCCN)cc2)cc1 [Curcumin 0 hydrochloride]
> 5

Dear colleague, I am looking for the recorded log reduction at 10 µM of the following compound: Cl.Cl.Cl.Cl.NCCOc1ccc(/C=C/C(=O)CC(=O)/C=C/c2ccc(OCCN)c(OCCN)c2)cc1OCCN [Curcumin 03 hydrochloride]
> 7

Can you share its log reduction at 10 µM? I mean this compound: COc1cc(OCCN)ccc1/C=C/C(=O)CC(=O)/C=C/c1ccc(OCCN)cc1OC [Curcumin 01b hydrochloride]
> 3

Look up log reduction at 10 µM for this compound: NCCOc1cc(/C=C/C(=O)CC(=O)/C=C/c2cc(OCCN)c(OCCN)c(OCCN)c2)cc(OCCN)c1OCCN [Curcumin 05 hydrochloride]
> 4

Using the record for COc1cc(/C=C/C(=O)CC(=O)/C=C/c2ccc(OCCN)c(OC)c2)ccc1OCCN.Cl.Cl [Curcumin 01a hydrochloride] , report its log reduction at 10 µM.
> 2

Using the record for COc1cc(/C=C/C(=O)CC(=O)/C=C/c2cc(I)c(OCCN)c(OC)c2)cc(I)c1OCCN [Curcumin 01c hydrochloride] , report its log reduction at 10 µM.
> 2
